Parameter: FIC index. Scope: all listed entries.
Tested on: MDR E. coli B2
experimental_details: Checkerboard assay with LI14
Format: cell-based, Escherichia coli
condition_info: antibiotic in combination with LI14, checkerboard 8 × 8, 18 h, ≤0.5 = synergy
Give the figure only, with no unit attached.

See these solved cases before continuing.
INSERT INTO results (molecule, test_system, measured) VALUES
  ('CN[C@H](CC(C)C)C(=O)N[C@H]1C(=O)N[C@@H](CC(N)=O)C(=O)N[C@H]2C(=O)N[C@H]3C(=O)N[C@H](C(=O)N[C@H](C(=O)O)c4cc(O)cc(O)c4-c4cc3ccc4O)[C@H](O)c3ccc(c(Cl)c3)Oc3cc2cc(c3O[C@@H]2O[C@H](CO)[C@@H](O)[C@H](O)[C@H]2O[C@H]2C[C@](C)(N)[C@H](O)[C@H](C)O2)Oc2ccc(cc2Cl)[C@H]1O [Vancomycin]', 'MDR E. coli B2', 0.078),
  ('CC1(C)S[C@@H]2[C@H](NC(=O)[C@H](N)c3ccccc3)C(=O)N2[C@H]1C(=O)O [Ampicillin]', 'MDR E. coli B2', 2),
  ('C[C@H]1c2cccc(O)c2C(=O)C2=C(O)[C@]3(O)C(=O)C(C(N)=O)=C(O)[C@@H](N(C)C)[C@@H]3[C@@H](O)[C@@H]21 [Doxycycline]', 'MDR E. coli B2', 0.25),
  ('O=C(O)c1cn(C2CC2)c2cc(N3CCNCC3)c(F)cc2c1=O [Ciprofloxacin]', 'MDR E. coli B2', 0.188);

Continue with the next molecule.
Just so you know, measured FIC index for C[C@@H](O)[C@H]1C(=O)N2C(C(=O)O)=C(S[C@@H]3CN[C@H](C(=O)N(C)C)C3)[C@H](C)[C@H]12 [Meropenem] came out at 2

---

System: E. coli ATCC 25922
experimental_details: microbe, parasite or virus in culture
Format: cell-based, Escherichia coli
Design: unit not given here
condition_info: E. coli 25922; unit not given
Ends that are not written are not given here.
Parameter: Antibacterial activity of LI14 derivates. Scope: all listed entries.
Give the figure only, with no unit attached.

See these solved cases before continuing.
INSERT INTO assay_data (substance, reported_metric, measured) VALUES
  ('LAKLCRILKKLCRI-NH2 [LI14-A2, Ala substitute of LI14, position 2]', 'Antibacterial activity of LI14 derivates', 8),
  ('LKKLCRILKKACRI-NH2 [LI14-A11, Ala substitute of LI14, position 11]', 'Antibacterial activity of LI14 derivates', 16),
  ('LKKLCRILKKLCAI-NH2 [LI14-A13, Ala substitute of LI14, position 13]', 'Antibacterial activity of LI14 derivates', 8),
  ('LKALCRILKKLCRI-NH2 [LI14-A3, Ala substitute of LI14, position 3]', 'Antibacterial activity of LI14 derivates', 16),
  ('LKKLARILKKLCRI-NH2 [LI14-A5]', 'Antibacterial activity of LI14 derivates', 4);

Just so you know, measured Antibacterial activity of LI14 derivates for LKKLCRILKKLCRA-NH2 [LI14-A14, Ala substitute of LI14, position 14] came out at 16

Just so you know, measured Antibacterial activity of LI14 derivates for LKKLCRALKKLCRI-NH2 [LI14-A7, Ala substitute of LI14, position 7] came out at 32

Just so you know, measured Antibacterial activity of LI14 derivates for LKKLCAILKKLCRI-NH2 [LI14-A6, Ala substitute of LI14, Arg at position 6] came out at 128
